Origin of the recorded values: ChEMBL document CHEMBL1138652

# method: Maximum plasma concentration after peroral administration of compound at dose of 0.5 mg/kg in male wistar rats was determined
# Assay type: ADME, organism-based
# Parameters: dose 0.5 mg/kg, route oral
# measurementContext: rat, po
propertyLabel: Cmax (ng/mL)

>>> measuredresult("COC[C@@H](NC(=O)c1ccc(Cl)s1)C(=O)Nc1ccc(N2CCOCC2=O)c(C)c1")
92

====

# method: Solubility was determined
# Assay type: ADME
# measurementContext: human
propertyLabel: log10(solubility) (log10 of the value in µg/mL)

>>> measuredresult("CCCOC[C@@H](NC(=O)c1ccc(Cl)s1)C(=O)Nc1ccc(N2CCOCC2=O)c(C)c1")
1.96
>>> measuredresult("COC[C@@H](NC(=O)c1ccc(Cl)s1)C(=O)Nc1ccc(N2CCOCC2=O)c(C)c1")
2.71
>>> measuredresult("CC[C@@H](NC(=O)c1ccc(Cl)s1)C(=O)Nc1ccc(N2CCOCC2=O)c(C)c1")
1.61
>>> measuredresult("Cc1cc(NC(=O)[C@@H](C)NC(=O)c2ccc(Cl)s2)ccc1N1CCOCC1=O")
2.13
>>> measuredresult("COCCOC[C@@H](NC(=O)c1ccc(Cl)s1)C(=O)Nc1ccc(N2CCOCC2=O)c(C)c1")
3.02
>>> measuredresult("Cc1cc(NC(=O)[C@@H](CC(C)C)NC(=O)c2ccc(Cl)s2)ccc1N1CCOCC1=O")
1.46
>>> measuredresult("Cc1cc(NC(=O)[C@@H](CO)NC(=O)c2ccc(Cl)s2)ccc1N1CCOCC1=O")
2.72

====

# method: Maximum plasma concentration after peroral administration of compound at dose of 0.5 mg/kg in female dogs was determined
# Assay type: ADME, organism-based, Canis lupus familiaris
# Set-up: dose 0.5 mg/kg, route oral
# measurementContext: dog, po
propertyLabel: Cmax

>>> measuredresult("COC[C@@H](NC(=O)c1ccc(Cl)s1)C(=O)Nc1ccc(N2CCOCC2=O)c(C)c1")
"0.161 µg/mL"

====

# method: Half life of compound after intravenous administration at dose of 0.15 mg/kg in female dogs was determined
# measurementContext: dog, in vivo
propertyLabel: half-life

>>> measuredresult("COC[C@@H](NC(=O)c1ccc(Cl)s1)C(=O)Nc1ccc(N2CCOCC2=O)c(C)c1")
"34.2 min"

====

# method: Clearance of compound after intravenous administration at dose of 0.2 mg/kg in female monkeys was determined
# Type: ADME, organism-based
# Design: dose 0.2 mg/kg, route intravenous
# measurementContext: cercopithecidae, in vivo
propertyLabel: clearance (L/h/kg)

>>> measuredresult("COC[C@@H](NC(=O)c1ccc(Cl)s1)C(=O)Nc1ccc(N2CCOCC2=O)c(C)c1")
0.25

====

# targetDesc: Trypsin (Homo sapiens, UniProt P07477+P07478+P35030)
# method: Inhibitory concentration against human trypsin activity
# Format: protein assay
propertyLabel: IC50

>>> measuredresult("CCC[C@@H](NC(=O)c1ccc(Cl)s1)C(=O)Nc1ccc(N2CCOCC2=O)cc1")
"> 10 µM"
>>> measuredresult("Cc1cc(NC(=O)[C@@H](C)NC(=O)c2ccc(Cl)s2)ccc1N1CCOCC1=O")
"> 10 µM"
>>> measuredresult("Cc1cc(NC(=O)[C@@H](CC(C)C)NC(=O)c2ccc(Cl)s2)ccc1N1CCOCC1=O")
"> 10 µM"
>>> measuredresult("O=C(N[C@H](C(=O)Nc1ccc(N2CCOCC2=O)cc1)c1ccccc1)c1ccc(Cl)s1")
"> 10 µM"

====

# method: Bioavailability of compound after peroral administration at dose of 0.5 mg/kg in male wistar rats was determined
# Format: ADME, organism-based
# measurementContext: rat, in vivo, po, read-out: Bioavailabiility
propertyLabel: bioavailability

>>> measuredresult("COC[C@@H](NC(=O)c1ccc(Cl)s1)C(=O)Nc1ccc(N2CCOCC2=O)c(C)c1")
"~60%"

====

# method: Maximum plasma concentration after peroral administration of compound at dose of 0.5 mg/kg in female monkeys was determined
# Format: ADME, organism-based
# Parameters: dose 0.5 mg/kg, route oral
# measurementContext: cercopithecidae, po
propertyLabel: Cmax (ng/mL)

>>> measuredresult("COC[C@@H](NC(=O)c1ccc(Cl)s1)C(=O)Nc1ccc(N2CCOCC2=O)c(C)c1")
270

====

# method: Maximum time taken for concentration of compound in plasma after peroral administration at dose of 0.5 mg/kg in male wistar rats was determined
# Type: ADME, organism-based
# Design: dose 0.5 mg/kg, route oral
# measurementContext: rat, po
propertyLabel: Tmax

>>> measuredresult("COC[C@@H](NC(=O)c1ccc(Cl)s1)C(=O)Nc1ccc(N2CCOCC2=O)c(C)c1")
"2.5 h"

====

# method: Area under curve concentration of compound at 6 hr after peroral administration at dose of 0.5 mg/kg in male wistar rats was determined
# Format: ADME, organism-based
# Parameters: time < 6 hr, dose 0.5 mg/kg, route oral
# measurementContext: rat, in vivo, po
propertyLabel: AUC (ng·h/mL)

>>> measuredresult("COC[C@@H](NC(=O)c1ccc(Cl)s1)C(=O)Nc1ccc(N2CCOCC2=O)c(C)c1")
271

====

# method: Steady state volume of distribution of compound after intravenous administration at dose of 0.2 mg/kg in female monkeys was determined
# Format: ADME, organism-based
# Parameters: dose 0.2 mg/kg, route intravenous
# measurementContext: cercopithecidae, in vivo, read-out: Vss
propertyLabel: Vd (L/kg)

>>> measuredresult("COC[C@@H](NC(=O)c1ccc(Cl)s1)C(=O)Nc1ccc(N2CCOCC2=O)c(C)c1")
0.81

====

# method: Clearance of compound after intravenous administration at dose of 0.2 mg/kg in male wistar rats was determined
# Format: ADME, organism-based
# Set-up: dose 0.2 mg/kg, route intravenous
# measurementContext: rat, in vivo
propertyLabel: clearance (mL/min/kg)

>>> measuredresult("COC[C@@H](NC(=O)c1ccc(Cl)s1)C(=O)Nc1ccc(N2CCOCC2=O)c(C)c1")
15.7

====

Listing of entries alongside the reported IC50.
# targetDesc: Trypsin (Homo sapiens, UniProt P07477+P07478+P35030)
# method: Inhibitory concentration against human trypsin activity
# Type: protein assay
propertyLabel: IC50

>>> measuredresult("CC(C)C[C@H](NC(=O)c1ccc(Cl)s1)C(=O)Nc1ccc(N2CCOCC2=O)cc1")
"> 10 µM"
>>> measuredresult("CCCOC[C@@H](NC(=O)c1ccc(Cl)s1)C(=O)Nc1ccc(N2CCOCC2=O)c(C)c1")
"> 10 µM"
>>> measuredresult("CCOC[C@@H](NC(=O)c1ccc(Cl)s1)C(=O)Nc1ccc(N2CCOCC2=O)c(C)c1")
"> 10 µM"
>>> measuredresult("Cc1cc(NC(=O)[C@@H](CO)NC(=O)c2ccc(Cl)s2)ccc1N1CCOCC1=O")
"> 10 µM"
>>> measuredresult("O=C(CNC(=O)c1ccc(Cl)s1)Nc1ccc(N2CCOCC2=O)cc1")
"> 10 µM"
>>> measuredresult("CC[C@@H](NC(=O)c1ccc(Cl)s1)C(=O)Nc1ccc(N2CCOCC2=O)c(C)c1")
"> 10 µM"
>>> measuredresult("CCC[C@@H](NC(=O)Nc1ccc(Cl)cc1)C(=O)Nc1ccc(N2CCOCC2=O)cc1")
"> 10 µM"
>>> measuredresult("COC[C@@H](NC(=O)c1ccc(Cl)s1)C(=O)Nc1ccc(N2CCOCC2=O)c(F)c1")
"> 10 µM"
>>> measuredresult("CC[C@@H](NC(=O)c1ccc(Cl)s1)C(=O)Nc1ccc(N2CCOCC2=O)cc1")
"> 10 µM"

====

# method: Steady state volume of distribution of compound after intravenous administration at dose of 0.2 mg/kg in male wistar rats was determined
# Assay type: ADME, organism-based
# Parameters: dose 0.2 mg/kg, route intravenous
# measurementContext: rat, in vivo, read-out: Vss
propertyLabel: Vd (L/kg)

>>> measuredresult("COC[C@@H](NC(=O)c1ccc(Cl)s1)C(=O)Nc1ccc(N2CCOCC2=O)c(C)c1")
1.6

====

# method: Maximum absorbable dose of compound after administration at dose of 10 mg/kg was determined
# Type: ADME, organism-based
# Design: dose 10 mg/kg
# measurementContext: human
propertyLabel: MAD (mg/kg)

>>> measuredresult("COC[C@@H](NC(=O)c1ccc(Cl)s1)C(=O)Nc1ccc(N2CCOCC2=O)c(C)c1")
11
>>> measuredresult("Cc1cc(NC(=O)[C@@H](C)NC(=O)c2ccc(Cl)s2)ccc1N1CCOCC1=O")
2.8
>>> measuredresult("Cc1cc(NC(=O)[C@@H](CC(C)C)NC(=O)c2ccc(Cl)s2)ccc1N1CCOCC1=O")
0.6
>>> measuredresult("COCCOC[C@@H](NC(=O)c1ccc(Cl)s1)C(=O)Nc1ccc(N2CCOCC2=O)c(C)c1")
22
>>> measuredresult("Cc1cc(NC(=O)[C@@H](CO)NC(=O)c2ccc(Cl)s2)ccc1N1CCOCC1=O")
11
>>> measuredresult("CC[C@@H](NC(=O)c1ccc(Cl)s1)C(=O)Nc1ccc(N2CCOCC2=O)c(C)c1")
6.5
>>> measuredresult("CCCOC[C@@H](NC(=O)c1ccc(Cl)s1)C(=O)Nc1ccc(N2CCOCC2=O)c(C)c1")
1.9
